# Test system: NUGC-3
# PROTOCOL_NOTES: Cytotoxicity against human NUGC-3 cells assessed as cell growth inhibition
# Format: functional
Below, each of the compounds is paired with its reported GI50 value.
Only the number, expressed in µM, is required.

Example entries begin here.
>  <COMPOUND_SMILES>
Cc1cc(C)c2sc(NC(=O)c3ccc(C#N)cc3)nc2c1

>  <QUANTITATIVE_RESULT>
0.29

$$$$
>  <COMPOUND_SMILES>
Cc1cc(C)c2sc(NC(=O)c3ccc(C(F)(F)F)cc3)nc2c1

>  <QUANTITATIVE_RESULT>
0.29

$$$$

GI50 for `COc1cccc2sc(NC(=O)c3ccc(C)cc3)nc12` ? 0.86

GI50 for `Cc1cc(C)c2sc(NC(=O)c3ccc([N+](=O)[O-])cc3)nc2c1` ? 0.29

GI50 for `O=C(Nc1nc2ccc([N+](=O)[O-])cc2s1)c1ccc(C(F)(F)F)cc1` ? 0.86
